# test.target: T1, Human CD27 ECD (ECD 1-173, His6) (human, UniProt P26842 21-193, biotinylated on amine residues (NHS-ester) where used biotinylated)
# T1 construct: also called biotinylated human CD27 ECD
# T1 sequence (P26842 other isoform, or with tags, fused parts or gaps limits assumed): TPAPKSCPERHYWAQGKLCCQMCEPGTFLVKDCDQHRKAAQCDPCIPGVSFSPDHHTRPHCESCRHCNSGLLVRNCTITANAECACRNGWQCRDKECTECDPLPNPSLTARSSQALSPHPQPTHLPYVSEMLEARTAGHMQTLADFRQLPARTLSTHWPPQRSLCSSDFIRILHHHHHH
# protocol.details: single point Fab ELISA
measurement.name: binding result

- F298 (Fab, V domains shown, also called H191/L40) VH: EVQLLESGGGLVQPGGSLRLSCAASGFTFSSYTMSWVRQAPGKGLEWVSAIDGGGGATYYPDSVKGRFTISRDNSKNTLYLQMNSLRAEDTAVYYCARHRGNPFDYWGQGTLVTVSS VL: DIQMTQSPSSLSASVGDRVTITCRASKSVSTSGYSFMHWYQQKPGKAPKLLIYLASNLESGVPSRFSGSGSGTDFTLTISSLQPEDFATYYCQHSRELPWTFGQGTKVEIK: binds
- F243 (Fab, V domains shown, also called H39/L124) VH: EVQLLESGGGLVQPGGSLRLSCAASGFTFSSYTMSWVRQAPGKGLEWVSYISSGGGNTYYPDSVKGRFTISRDNSKNTLYLQMNSLRAEDTAVYYCARHRGNPFDYWGQGTLVTVSS VL: DIQMTQSPSSLSASVGDRVTITCRASKSVSTSGYSFMHWYQQKPGKAPKLLIYVGSRMAFGVPSRFSGSGSGTDFTLTISSLQPEDFATYYCQHSRELPWTFGQGTKVEIK: binds
- F279 (Fab, V domains shown, also called H39/L160) VH: EVQLLESGGGLVQPGGSLRLSCAASGFTFSSYTMSWVRQAPGKGLEWVSYISSGGGNTYYPDSVKGRFTISRDNSKNTLYLQMNSLRAEDTAVYYCARHRGNPFDYWGQGTLVTVSS VL: DIQMTQSPSSLSASVGDRVTITCRASKSVSYVRWSFMHWYQQKPGKAPKLLIYLASNLESGVPSRFSGSGSGTDFTLTISSLQPEDFATYYCQHSRELPWTFGQGTKVEIK: binds
